System: HuTu 80
Assay: MTT cell viability test, HuTu 80
Assay type: cell-based, human
Test Conditions: Homo sapiens, HuTu80; incubation time 24 h
Recorded Metric: IC50 (µM)
Answers are plain numbers, in µM.

// solved cases for IC50 follow
• O=C1C(=O)N(Cc2c(F)cccc2F)c2ccccc21 = 50.3
• O=C1C(=O)N(Cc2c(F)c(F)c(F)c(F)c2F)c2ccccc21 = 54.1
• Cc1ccc(CN2C(=O)C(=O)c3cc(F)ccc32)cc1 = 44

Here are 4 compounds. What values of IC50 were reported for them?
1. O=C1C(=O)N(Cc2c(F)c(F)c(F)c(F)c2F)c2ccc(F)cc21
2. Cc1cc(C)cc(CN2C(=O)C(=O)c3cc(F)ccc32)c1
3. O=C1C(=O)N(Cc2c(F)cccc2F)c2ccc(F)cc21
4. Cc1ccc2c(c1)C(=O)C(=O)N2Cc1cccc(C(F)(F)F)c1

Reply:
1. 92
2. 50
3. 41.2
4. 53.2

Here are 2 compounds. What values of IC50 were reported for them?
1. CC(C)(C)c1cc(CN2C(=O)C(=O)c3cc(F)ccc32)cc(C(C)(C)C)c1
2. O=C1C(=O)N(Cc2ccccc2Cl)c2ccc(F)cc21

Reply:
[33.3, 38.3]
